- Assayed System: T1, hK1 (human tissue kallikrein 1), recombinant (human, UniProt P06870 25-262)
- T1 construct: Expressed in P. pastoris from KLK1 cDNA and purified; enzymatically active; also called KLK1; Recombinant (Pichia) Kallikrein
- Assay Text: SPR
Recorded kon for the following binders

{"columns": ["Binder", "kon, M⁻¹ s⁻¹"],
 "data": [
  ["M0103-H07 (Fab, V domains shown) VH: EVQLLESGGGLVQPGGSLRLSCAASGFTFSHYGMYWVRQAPGKGLEWVSSIYPSGGWTNYADSVKGRFTISRDNSKNTLYLQMNSLRAEDTAVYYCARRGSWGAFDIWGQGTMVTVSS VL: DIQMTQSPSSLSASVGDRVAITCRASQSIDTYLNWYQQKPGKAPKLLIYAASKLEDGVPSRFSGSGTGTDFTLTIRSLQPEDFATYYCQPYNTYPITFGQGTRLEIKR", 100000],
  ["M0093-E11 (Fab, V domains shown) VH: EVQLLESGGGLVQPGGSLRLSCAASGFTFSHYEMAWVRQAHGKGLEWVSVIYPSGGATRYADSVKGRFTISRDNSKNTLYLQMNSLRAEDTAVYYCARVAQYYGMDVWGQGTTVTVSS VL: DIQMTQSPATLSLSPGERATLSCRASQSVSSYLAWYQQKPGQAPRLLIYDASNRATGIPARFSGSGSGTDFTLTISSLEPEDFAVYYCQQRSNWLTFGGGTKVEIKR", "1.34e+06"]
]}

Hello, the source for this data is patent US7329737, in case you need it.
